Listed next: entries and their corresponding pKd.
molecular target: lysozyme (egg white) (Gallus gallus, UniProt P00698 P00698:19-147); assay: filter; specificity control, like random RNA; TBSC; conditions: tags: 6x crystallized
Sequence (P00698 19-147, one chain of several): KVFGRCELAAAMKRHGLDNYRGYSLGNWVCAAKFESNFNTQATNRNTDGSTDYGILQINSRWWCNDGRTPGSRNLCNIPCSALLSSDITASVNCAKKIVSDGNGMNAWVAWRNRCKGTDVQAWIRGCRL
In simple prose, pKd is minus the logarithm base ten of a concentration in moles per litre.

For orientation, consider the following solved cases.
{"columns": ["BINDER", "MEASURED VALUE"],
 "data": [
  ["87 (ssRNA) RNA: GGGAGCUCAGAAUAAACGCUCAAGCUCUGGGAUGAUGCCCACUGUCCAGCAUCUUCGACAUGAGGCCCGGAUCCGGC", 5.64],
  ["2 (ssRNA) RNA: GGGAGCUCAGAAUAAACGCUCAAUCUCAUUGCUCGUCGCACGGCGUAACCUAUUUCGACAUGAGGCCCGGAUCCGGC", 5.77]
]}

Input line: # get_value(readout='pKd', item= 80 (ssRNA) RNA: GGGAGCUCAGAAUAAACGCUCAAGCUCUGGGAUGAUGCCCAGUGUCCAGCAUCUUCGACAUGAGGCCCGGAUCCGGC )
Output line: 5.57

Input line: # get_value(readout='pKd', item= 72 (ssRNA) RNA: GGGAGCUCAGAAUAAACGCUCAAGACCUCUGCUUACAGCCCGGCUGAGACACUUCGACAUGAGGCCCGGAUCCGGC )
Output line: 5.82
